- experimentalTarget: hMPV F protein of hMPV TN/93-32 (genotype B) (human metapneumovirus)
- testName: cell-based or functional assay
measuredEndpoint: IC50, plaque-reduction neutralization of hMPV TN/93-32 (µg/mL)

# binder, quantitativeResult
records = [
    ("MPV486 (antibody, V domains shown) VH: EVQLVESGGHLVQSGGSLRLSCAASGFTFSNYILNWVRQAPGKGLEWISYITGGSSAIYYADSVKGRFTISRDDAKNSLYLQMNNLRAEDTAVYYCARSHGYDSSGYYYYFAMDVWGQGTTVTVSS VL: QSVLTQPPSASGTPGQRVTISCSGSNSNIESNTVNWYQQIPGTAPKLLIYSDNRRPSGVPDRFSGSKSGTSASLAISGLQSEDEADYYCAAWDDSLIGYVFGTGTKVTV", 0.062),
]
